Reference source: ChEMBL document CHEMBL4049389

experimental-system: Kappa-type opioid receptor (Homo sapiens, UniProt P41145)
Sequence (P41145 whole entry): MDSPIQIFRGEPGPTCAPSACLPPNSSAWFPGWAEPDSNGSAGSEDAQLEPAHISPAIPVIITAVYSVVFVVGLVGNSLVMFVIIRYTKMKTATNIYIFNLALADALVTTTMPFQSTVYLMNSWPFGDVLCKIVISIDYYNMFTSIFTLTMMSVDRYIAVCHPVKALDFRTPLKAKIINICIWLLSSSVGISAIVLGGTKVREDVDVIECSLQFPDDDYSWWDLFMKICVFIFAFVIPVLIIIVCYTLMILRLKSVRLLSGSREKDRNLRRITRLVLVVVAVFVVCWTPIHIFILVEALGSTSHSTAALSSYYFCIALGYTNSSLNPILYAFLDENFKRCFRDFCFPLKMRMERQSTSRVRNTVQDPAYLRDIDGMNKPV
assay-protocol: Displacement of [3H]U69593 from recombinant human kappa-opioid receptor expressed in CHO cell membranes at 1 X 10^-5 M after 60 mins by liquid scintillation counting method relative to control
Attribute: inhibition
test-readout: inhibition

{"columns": ["compound", "test-readout", "result"],
 "data": [
  ["Cc1cc(C)cc(C2CCCN2Cc2ccc(Oc3ccc(C(N)=O)c4ccccc34)cc2)c1 (centres undefined)", "inhibition", "23.7%"],
  ["NC(=O)c1ccc(Oc2ccc(CN3CCCC3c3cccc(F)c3)cc2)c2ccccc12 (centres undefined)", "inhibition", "57.9%"],
  ["NC(=O)c1ccc(Oc2ccc(CN3CCCC3c3cccnc3)cc2)c2ccccc12 (centres undefined)", "inhibition", "12%"],
  ["COc1ccc(C2CCCN2Cc2ccc(Oc3ccc(C(N)=O)c4ccccc34)cc2)cc1 (centres undefined)", "inhibition", "80.5%"]
]}
